Measure Name: melting point

Worked cases, answers included:
In [3]: df
Out[3]:
                                   compound         result
0  NC(=O)C(c1ccc(C(=O)O)cc1)C(Cc1ccccc1)c1ccccc1N1CCCCC1 (centres undefined)  214 to 215 °C
1  CC(C)[C@H]1COC(=O)N1C(=O)[C@H](C)CC(=O)OC(C)(C)C    64 to 65 °C
2  Cc1ccc(-c2ccc3c(c2)C=C(C(=O)NC2CCN(CCC4CCCCC4)CC2)CCO3)cc1  193 to 196 °C

// melting point value for CC(=O)N1CCC2(CC1)CSC1=C(O2)c2ccccc2C(=O)C1=O : 252 to 255 °C

// melting point value for O=C(Nc1cccc(S(=O)(=O)N2CCOCC2)c1)c1cnn2c(C(F)(F)F)cc(-c3ccc(C(F)(F)F)cc3)nc12 : 233 °C

// melting point value for COc1ccc2ccc3ccc(C=O)c4ccc1c2c34 : 135 to 136 °C

// melting point value for CCCCNc1nc(C)c(C(=O)c2ccc(N)c(N)c2)s1 : 127 to 130 °C

// melting point value for Cc1cc(-c2ccc(C(F)(F)F)cc2)cc(-c2ccnc(-c3ccc(S(N)(=O)=O)s3)n2)n1 : > 250 °C

// melting point value for CON=C(N)C(F)(F)C(O)(Cn1cncn1)c1ccc(F)cc1F (centres undefined) : 114 °C

Origin of values: a melting point compilation (Tetko et al.; mined from patent text by program, amines drawn as free bases though some values may be those of a salt)
